- runDescription: Toxicity liver stage against HepG2, at 10uM
- Format: cell-based
- Design: test concentration 10 uM, cell line HepG2-A16-CD81EGFP
- conditionNotes: human, HepG2-A16-CD81EGFP cells; read-out: INHIBITION
This section presents compounds with their documented cytotoxicity at 10 µM values.
quantity: cytotoxicity at 10 µM (%)

                                    compound               quantity  recordedresult
 0  COC1(CNS(=O)(=O)c2ccccc2Cl)CCSC1 (stereo not given)  cytotoxicity at 10 µM           -7.48
 1  N#Cc1cccnc1NCc1cccc(C(=O)NCC2CCCCO2)c1 (stereo not given)  cytotoxicity at 10 µM               5
 2  CCC(NCc1nccn1C)c1nc(C(F)(F)F)cs1 (stereo not given)  cytotoxicity at 10 µM           0.245
 3    Cn1ccc(C(=O)NCc2ccc(N3CCOCC3)nc2)cc1=O  cytotoxicity at 10 µM           -14.3
 4  COc1ncccc1CN1CC[C@H]2O[C@H](c3nnc(C)o3)CC[C@H]21  cytotoxicity at 10 µM            15.1
 5  Cc1ccc(N(CC(=O)N2CCCCC2)C(=O)C2COCCO2)cc1 (stereo not given)  cytotoxicity at 10 µM            13.6
 6  CCCOC(=O)N1CCC(c2nnc(Cn3cccn3)n2C2CC2)CC1  cytotoxicity at 10 µM           -8.52
 7  CCOc1ccc(N(C)S(=O)(=O)c2c[nH]c(C(C)C)n2)cc1  cytotoxicity at 10 µM           -4.52
 8      CN(C)Cc1ccnc(NS(=O)(=O)CCc2ccccc2)c1  cytotoxicity at 10 µM           -3.09
 9  CN1CCOC(CNCC(=O)NCCc2ccc3c(c2)OCCO3)C1 (stereo not given)  cytotoxicity at 10 µM           -10.2
10  CN(C)CC1(O)CCN(Cc2cnc3c(-c4ccccc4)cnn3c2)C1 (stereo not given)  cytotoxicity at 10 µM           -6.16
11      COCCN(Cc1cc(O)nc2ccccc12)C(=O)NC(C)C  cytotoxicity at 10 µM            7.66
12  O=C(c1ncccn1)N1C[C@H]2CCC[C@@]2(COCc2cccnc2)C1  cytotoxicity at 10 µM            1.83
13  Cc1ccc(-c2cn[nH]c2C2CCCN(c3ccnc(C)n3)C2)cc1 (stereo not given)  cytotoxicity at 10 µM           -1.78
14                  CCOCCNC(=O)c1ccc(OC)cc1I  cytotoxicity at 10 µM            6.53
15  CNC(=O)c1cc(C)nc(C2(C)CCCN2c2cc(C)ncn2)n1 (stereo not given)  cytotoxicity at 10 µM            2.15
16    O=C(COc1coc(CN2CCCCC2)cc1=O)NCc1ccccc1  cytotoxicity at 10 µM           -7.25
17            CCc1nc(-c2ccnc(N3CCNCC3)n2)no1  cytotoxicity at 10 µM            11.9
18  COc1ccccc1C(C)(C)NC(=O)c1cc(NC(C)=O)ccc1F  cytotoxicity at 10 µM            -137
19    COc1ccnc(N2CCN(C(=O)COCC(F)(F)F)CC2)n1  cytotoxicity at 10 µM           -9.36
20  Cc1cccc(-n2cc3[nH]c(=O)n(Cc4cccc(F)c4)n3c2=O)c1  cytotoxicity at 10 µM            1.79
21  CC(COc1ccccc1)NCc1nc(-c2cccnc2)no1 (stereo not given)  cytotoxicity at 10 µM           -14.1
22     COc1ccc(-n2cc3[nH]c(=O)[nH]n3c2=O)cc1  cytotoxicity at 10 µM          -0.106
23  CC1CCC(NC(=O)CNC2(c3cccc(Br)c3)CCOCC2)CC1 (stereo not given)  cytotoxicity at 10 µM            2.94
24        CCc1nc(NCCCn2cccn2)c2c(n1)c(C)nn2C  cytotoxicity at 10 µM            6.41
